// reported pKi for each item listed
Target: Kappa-type opioid receptor (Homo sapiens)
Sequence (P41145 whole entry): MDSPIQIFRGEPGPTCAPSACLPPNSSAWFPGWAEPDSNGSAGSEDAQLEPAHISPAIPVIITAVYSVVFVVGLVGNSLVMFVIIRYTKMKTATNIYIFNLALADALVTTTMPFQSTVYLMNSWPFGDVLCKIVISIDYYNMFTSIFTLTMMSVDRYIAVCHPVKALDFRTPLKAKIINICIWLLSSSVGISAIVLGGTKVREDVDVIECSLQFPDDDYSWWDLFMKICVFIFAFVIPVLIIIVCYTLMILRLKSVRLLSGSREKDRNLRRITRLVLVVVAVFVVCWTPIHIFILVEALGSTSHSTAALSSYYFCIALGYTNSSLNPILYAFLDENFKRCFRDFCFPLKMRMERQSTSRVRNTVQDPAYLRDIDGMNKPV
Test: Displacement of [3H]diprenorphine from human kappa opioid receptor expressed in CHO cell membranes after 1 hr by liquid scintillation counting analysis
Reminder that pKi is minus the log10 of a molar concentration.

INSERT INTO measurements (molecule, reported) VALUES
  ('Cc1cc(O)cc(C)c1C[C@H](N)C(=O)N1CCN(CCCc2ccccc2)CC1', 6.60),
  ('Cc1cc(O)cc(C)c1C[C@H](N)C(=O)N1CCN(CCC(c2ccccc2)c2ccccc2)CC1', 6.82),
  ('Cc1cc(O)cc(C)c1C[C@H](N)C(=O)N1CCN(CCCCc2ccccc2)CC1', 7.11);

Requested read-out pKi, target or system Kappa-type opioid receptor (Homo sapiens), entry "Cc1cc(O)cc(C)c1C[C@H](N)C(=O)N1CCC(Cc2ccccc2)CC1"
6.85

Input "Cc1cc(O)cc(C)c1C[C@H](N)C(=O)N1CCC(CCCc2ccccc2)CC1"
6.96

One more molecule: Cc1cc(O)cc(C)c1C[C@H](N)C(=O)N1CCC(Cc2ccccc2)c2ccccc21 (some centres not stated)
6.51

Entry "Cc1cc(O)cc(C)c1C[C@H](N)C(=O)N1CCN(CCCCCc2ccccc2)CC1" please
7.41
